Below, IC50 values reported for Fibroblast growth factor receptor 1 (Homo sapiens, UniProt P11362) across several publications.

>>> df
                              sample_smiles        result
0  COc1cc2nccc(Oc3ccc(NC(=S)N4CC(F)(F)C4)c(Cl)c3)c2cc1C(N)=O  50 to 200 nM
1  CN(Cc1cc2c(nc1C=O)N(C(=O)Nc1cc(N[C@H]3CCOC3)c(C#N)cn1)CCC2)C(=O)C1CCOCC1    > 10000 nM
2  C=CC(=O)Nc1cnn(C[C@@H]2CCCO2)c1-c1cc2c(cn1)CN(c1c(F)c(OC)cc(OC)c1F)C(=O)C21CC1      > 200 nM
3  CC(C)Nc1cc(NC(=O)N2CCCc3cc(CN4CCN(C)CC4=O)c(C=O)nc32)ncc1C#N    > 10000 nM

Record IC50 per entry; entries follow.
1. CNC(=O)c1cc(C)c(F)c(-c2cnn3cc(-c4cnn(C5CCN(C)CC5)c4)c(N[C@H]4CCOC4)nc23)c1
2. COC(=O)c1cc2cc(-c3n[nH]c4cc(-c5c(F)c(OC)cc(OC)c5F)ncc34)ccc2o1
3. COCCN1Cc2cc(-c3n[nH]c4cc(-c5c(F)c(OC)cc(OC)c5F)ncc34)ccc2C1=O
4. CNC(=O)c1cc(C)c(F)c(-c2cnn3cc(-c4cnc(C5(F)CCN(C)CC5)o4)c(N[C@H]4CCOC4)nc23)c1
5. COc1cc2nccc(Oc3ccc(Nc4c(NCCC#N)c(=O)c4=O)c(Cl)c3)c2cc1C(N)=O
6. [2H]C([2H])([2H])NC(=O)c1cc(-c2cnn3cc(-c4ccc(CN5C[C@H]6C[C@@H]5CO6)nc4)c(O[C@H]4CCOC4)nc23)c(F)c(C(F)F)c1

1: 10 to 30 nM; 2: < 100 nM; 3: < 100 nM; 4: 30 to 200 nM; 5: 200 to 1000 nM; 6: 30 to 200 nM

Batch of 5 compounds: report IC50 for each.
1. COc1cc2nccc(Oc3ccc(NC(=S)Nc4cccnc4)c(Cl)c3)c2cc1C(N)=O
2. COCCOc1cc(Nc2ncnc(Nc3ccc(C)c(O)c3)n2)ccc1OC
3. CCN1C(=O)N(c2c(F)c(O)cc(OC)c2F)Cc2cnc3[nH]c(CN4CCOCC4)cc3c21
4. COc1cc2nccc(Oc3ccc(NC(=S)NC4CC4)c(Cl)c3)c2cc1C#N
5. COc1cc2nccc(Oc3ccc(NC(=S)Nc4ccc(F)cc4)c(Cl)c3)c2cc1C(N)=O

1: 200 to 1000 nM; 2: 1010 to 6040 nM; 3: < 10 nM; 4: 200 to 1000 nM; 5: 200 to 1000 nM
